Every entry's value here was drawn from patent US20240392013A1.

# experimental_system: T1, recombinant human IL1RAP protein, extracellular domain His-tagged (Sino Biological, Cat #10121-H08H) (human, UniProt Q9NPH3 21-367)
# T1 construct: extracellular domain; Bought protein; The Octet analyte is printed as huIL1RAP-His (Sino Biological, lot MB08MA1301) without a catalogue number; also called huIL1RAP-His; hIL1RAP; not shown: His tag
# T1 sequence (looked up): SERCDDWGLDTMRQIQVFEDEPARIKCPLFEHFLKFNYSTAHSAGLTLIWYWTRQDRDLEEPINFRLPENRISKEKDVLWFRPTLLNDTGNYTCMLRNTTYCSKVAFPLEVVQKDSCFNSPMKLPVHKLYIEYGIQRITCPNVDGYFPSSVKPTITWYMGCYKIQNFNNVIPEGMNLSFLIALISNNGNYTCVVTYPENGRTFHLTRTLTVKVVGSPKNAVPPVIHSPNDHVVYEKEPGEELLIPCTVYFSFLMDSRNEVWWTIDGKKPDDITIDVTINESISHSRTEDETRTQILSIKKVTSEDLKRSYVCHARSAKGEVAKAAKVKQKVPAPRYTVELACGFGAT
# method_notes: Octet BLI; mAb captured on anti-mouse IgG Fc sensor; huIL1RAP-His analyte
experimental_readout: Response
Give the figure only, with no unit attached.

[[record]]
binder = "STLX2029 (antibody, V domains shown, Purified from hybridoma of immunized Alivamab mice; intact IgG; captured on anti-mouse IgG Fc sensors in Octet; kappa light chain; also called 74804_29D13A) VH: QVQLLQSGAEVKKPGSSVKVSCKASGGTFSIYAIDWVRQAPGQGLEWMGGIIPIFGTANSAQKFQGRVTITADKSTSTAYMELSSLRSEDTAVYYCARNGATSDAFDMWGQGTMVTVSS VL: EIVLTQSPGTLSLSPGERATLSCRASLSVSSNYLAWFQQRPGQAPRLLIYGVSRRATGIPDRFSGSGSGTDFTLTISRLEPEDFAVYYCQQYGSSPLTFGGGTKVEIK"
result = 0.291

[[record]]
binder = "STLX2045 (antibody, V domains shown, Purified from hybridoma of immunized Alivamab mice; intact IgG; captured on anti-mouse IgG Fc sensors in Octet; kappa light chain; also called 74804_45C18A) VH: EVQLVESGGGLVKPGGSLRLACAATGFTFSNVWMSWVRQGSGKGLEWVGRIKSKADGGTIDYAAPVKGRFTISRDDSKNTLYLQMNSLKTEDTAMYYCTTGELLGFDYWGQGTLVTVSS VL: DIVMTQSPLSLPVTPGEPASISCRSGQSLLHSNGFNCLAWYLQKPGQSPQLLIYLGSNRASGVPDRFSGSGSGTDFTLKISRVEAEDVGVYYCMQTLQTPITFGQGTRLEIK"
result = 0.261

[[record]]
binder = "STLX2051 (antibody, V domains shown, Purified from hybridoma of immunized Alivamab mice; intact IgG; captured on anti-mouse IgG Fc sensors in Octet; kappa light chain; also called 74804_51C10A) VH: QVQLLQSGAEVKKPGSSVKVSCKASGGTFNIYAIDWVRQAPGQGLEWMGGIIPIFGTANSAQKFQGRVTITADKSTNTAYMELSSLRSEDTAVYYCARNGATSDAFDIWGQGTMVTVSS VL: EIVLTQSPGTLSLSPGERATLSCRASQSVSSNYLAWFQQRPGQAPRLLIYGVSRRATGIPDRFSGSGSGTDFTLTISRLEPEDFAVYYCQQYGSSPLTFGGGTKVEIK"
result = 0.237


Proceeding to the next binder to report its Response.
Prompt: Read the entry STLX2043 (antibody, V domains shown, Purified from hybridoma of immunized Alivamab mice; intact IgG; captured on anti-mouse IgG Fc sensors in Octet; kappa light chain; also called 74804_43F04A) VH: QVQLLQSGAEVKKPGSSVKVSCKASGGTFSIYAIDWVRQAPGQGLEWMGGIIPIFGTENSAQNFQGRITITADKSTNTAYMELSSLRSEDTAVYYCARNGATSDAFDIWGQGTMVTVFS VL: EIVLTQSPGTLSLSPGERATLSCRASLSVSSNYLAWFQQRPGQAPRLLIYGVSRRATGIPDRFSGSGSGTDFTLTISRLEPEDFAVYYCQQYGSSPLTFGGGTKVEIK and write its reported Response.
Completion: 0.251
